# target-or-test-system: Man(a1-2)Man(a1-3)[Man(a1-2)Man(a1-6)]Man
# assay-notes: glycan array binding signal (z-score within array); higher = stronger binding
# reported-conditions: glycan notation: IUPAC condensed, linker removed
Many of the other results were omitted from the sample, so the strongest signals are more common in it than they were.
Reported glycan array binding signal (z-score) values are given for each entry in this list.
Lab note: record the figure alone, no unit after it.

{"columns": ["binder", "glycan array binding signal (z-score)"],
 "data": [
  ["ConA (Canavalia ensiformis), P02866 (protein) MAISKKSSLFLPIFTFITMFLMVVNKVSSSTHETNALHFMFNQFSKDQKDLILQGDATTGTDGNLELTRVSSNGSPQGSSVGRALFYAPVHIWESSAVVASFEATFTFLIKSPDSHPADGIAFFISNIDSSIPSGSTGRLLGLFPDANVIRNSTTIDFNAAYNADTIVAVELDTYPNTDIGDPSYPHIGIDIKSVRSKKTAKWNMQNGKVGTAHIIYNSVDKRLSAVVSYPNADSATVSYDVDLDNVLPEWVRVGLSASTGLYKETNTILSWSFTSKLKSNEIPDIATVV", 3.94]
]}

Here is another binder to look at.
Problem: For the binder shown here, StdA (Salmonella typhimurium), Q8Z3Z0 (protein) MAAAGMMYGASVFAADTTPTAGPFGSGKILFTGTITNSPCDIAPGDDAITVPFGQISYRKLNTANATTDSKPFTIHLQNCAFDPNETTIAGSAGKMSKVTVSFSGTADTSGKAYVSTGSAQHVGVQLLKGDNTSLITPNTPMPDGDAQQLQAGNNELNFFARLIALTDAATPGDVNASVTYTLKYL , give the reported glycan array binding signal (z-score).
Result: -0.749
